Measured relative IC50, listed per entry.
Test system: ZR-75-1 Tam2
assay.info: relative IC50 (midpoint of fitted logistic curve, plateau may be below 50% inhibition; CellTiter-Glo viability); higher = less potent
condition.info: 4-OH-tamoxifen in medium 1 µM; 72 h

- molecule: "Oc1ncnc2[nH]ncc12 [Allopurinol]"
  target.desc: "ZR-75-1 Tam2"
  relative IC50: "> 10000 nM"
- molecule: "COc1ccc(C2=N[C@@H](c3ccc(Cl)cc3)[C@@H](c3ccc(Cl)cc3)N2C(=O)N2CCNC(=O)C2)c(OC(C)C)c1 [Nutlin-3]"
  target.desc: "ZR-75-1 Tam2"
  relative IC50: "1350 nM"
- molecule: "COc1ccc(-c2ccc3c(N4CCOC[C@@H]4C)nc(N4CCOC[C@@H]4C)nc3n2)cc1CO [AZD8055]"
  target.desc: "ZR-75-1 Tam2"
  relative IC50: "18.5 nM"
- molecule: "Cc1c(N)nc([C@H](CC(N)=O)NC[C@H](N)C(N)=O)nc1C(=O)N[C@H](C(=O)N[C@H](C)[C@@H](O)[C@H](C)C(=O)N[C@H](C(=O)NCCc1nc(-c2nc(C(=O)NCCC[S+](C)C)cs2)cs1)[C@@H](C)O)[C@@H](OC1OC(CO)C(O)C(O)C1OC1OC(CO)C(O)C(OC(N)=O)C1O)c1cnc[nH]1 (stereo partly specified) [Bleomycin]"
  target.desc: "ZR-75-1 Tam2"
  relative IC50: "> 10000 nM"
- molecule: "Cc1ccc(-c2cc(C(F)(F)F)nn2-c2ccc(S(N)(=O)=O)cc2)cc1 [Celecoxib]"
  target.desc: "ZR-75-1 Tam2"
  relative IC50: "> 10000 nM"
- molecule: "CCOc1cc2ncc(C#N)c(Nc3ccc(OCc4ccccn4)c(Cl)c3)c2cc1NC(=O)/C=C/CN(C)C [Neratinib]"
  target.desc: "ZR-75-1 Tam2"
  relative IC50: "> 1000 nM"
